B1: mRNA-splicing (parent)
chain: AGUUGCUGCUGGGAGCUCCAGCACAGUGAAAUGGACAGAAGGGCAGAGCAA

Variants of: B1
Method Description: exon inclusion enrichment index; higher = more inclusion; WT1 exon 5 minigene, HEK293
Readout: exon inclusion enrichment index

>>> recorded_value("C6A U7C C9A U10C G28C A29U")
2.34
>>> recorded_value("G5U G8U C9U U32G")
0.00207
>>> recorded_value("C6A U7A C9A U10A G41C G42C")
2.14
>>> recorded_value("G5C C6U G8C C9G U10C")
3.48
>>> recorded_value("G5A U7C G8A U10C A25U G26A")
2.39
>>> recorded_value("C6A U7A C9A U10A U32C G33U")
0.476
>>> recorded_value("C6G G8U C9U")
0.101
>>> recorded_value("G5C C6U G8C C9U U10C G15C C16A")
1.75
>>> recorded_value("G5A C6U U7A G8U C9A G38A")
0.0251
>>> recorded_value("C6A U7A C9A U10A A37C")
1.72
>>> recorded_value("C6A U7A C9A U10A C16G U17C")
0.22
>>> recorded_value("C6A U7C C9A U10C G46U A47G")
2.8
>>> recorded_value("G5A C6U U7A G8U C9A A25G G26U")
0.231
>>> recorded_value("U4G U7C G8A U10C")
1.53
>>> recorded_value("G5A C6G U7G C9A A20G G21U")
0.00168
>>> recorded_value("U3A U4C G5A C6U U7A G8U C9A")
0.3
>>> recorded_value("C6A U7C C9A U10C A40U G41U")
1.9
>>> recorded_value("G5C C6U G8C C9U U10C C36A A37G")
0.805
>>> recorded_value("G5A C6U U7A G8U C9A A45G G46A")
0.447
>>> recorded_value("G5A C6G U7G C9A A35C C36A")
0.000972
>>> recorded_value("G5C C6U G8C C9U U10C G21C C22G")
3.01
>>> recorded_value("G5C C6A U7C G8C U10A")
0.494
>>> recorded_value("G5C C6G U7C U10C U32C G33U")
2.45
>>> recorded_value("U4A G5C G8U C9U")
0.718
>>> recorded_value("G5A C6G U7G C9A G12A G13A")
0.00149
>>> recorded_value("C6A U7A C9A U10A C16A U17G")
0.312
>>> recorded_value("A25U G26U")
0.0827
>>> recorded_value("C6A U7C C9A U10C A14U G15C")
2.67
>>> recorded_value("C6A U7A C9A U10A G38A A39C")
0.579
>>> recorded_value("C6A U7C C9A U10C U17A C18U")
2.9
>>> recorded_value("G5U G8U C9U A30G A31U")
0.0253
>>> recorded_value("U3G U4C C6A U7C C9A U10C")
3.64
>>> recorded_value("G5C C6G U7C U10C C16A U17G")
3.25
>>> recorded_value("C6A U7C C9A U10C G21U C22G")
3.54
>>> recorded_value("G5U G8U C9U G38U A39C")
0.088
>>> recorded_value("G5C C6U G8C C9U U10C G12C G13C")
0.312
>>> recorded_value("G5A C6G U7G C9A")
0.00225
>>> recorded_value("G5C C6G U7C U10C G42C G43C")
3.63
